Where these numbers come from: patent US9200046B2

target: Nrf2-Keap1 complex (Homo sapiens); assay: cell-based; format: cell-based; conditions: Table 2; 100 nL compound; screen run at 16 and 32 μM, 3 hr
Sequence (Q14145 whole entry, one chain of several): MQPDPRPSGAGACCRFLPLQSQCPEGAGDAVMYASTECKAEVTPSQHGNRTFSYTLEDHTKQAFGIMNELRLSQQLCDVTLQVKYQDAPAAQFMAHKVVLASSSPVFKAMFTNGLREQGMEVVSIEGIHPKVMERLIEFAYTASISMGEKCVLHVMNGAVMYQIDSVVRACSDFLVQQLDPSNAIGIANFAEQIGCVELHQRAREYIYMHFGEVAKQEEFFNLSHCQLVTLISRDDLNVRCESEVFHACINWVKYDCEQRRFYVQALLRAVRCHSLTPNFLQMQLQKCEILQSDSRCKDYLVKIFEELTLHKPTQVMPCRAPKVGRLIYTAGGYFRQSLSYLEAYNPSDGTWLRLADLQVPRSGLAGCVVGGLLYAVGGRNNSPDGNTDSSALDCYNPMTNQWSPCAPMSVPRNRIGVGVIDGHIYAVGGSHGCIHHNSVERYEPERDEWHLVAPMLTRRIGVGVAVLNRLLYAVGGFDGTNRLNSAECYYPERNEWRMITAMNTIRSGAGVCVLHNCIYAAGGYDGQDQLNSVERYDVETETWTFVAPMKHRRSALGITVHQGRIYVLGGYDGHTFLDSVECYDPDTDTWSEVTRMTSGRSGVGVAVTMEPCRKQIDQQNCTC
value kind: 100 nL (luminescence)
// keep it numeric: no unit symbol after the value

Name the recorded 100 nL (luminescence) for Oc1cc(O)c2c(c1)O[C@H](c1cc(O)c(O)c(O)c1)[C@H](O)C2 [EPIGALLOCATECHIN] .
864

And the next one, C=C1C[C@@H]2[C@H](CC[C@]3(C)C(=O)CC[C@@H]23)[C@@]2(C)C=CC(=O)C=C12 [EXEMESTANE, reference compound] ?
4836

Now this one: "COc1ccc2ccc(=O)oc2c1CC=C(C)C"
1136

Also, "O=C1C=C2C=C[C@@H]3C[C@@]2(O1)[C@H]1CCCCN31" please.
2068

Also C=C1CC[C@H]2O[C@]2(C)CC[C@@H]2[C@@H]1CC2(C)C [CARYLOPHYLLENEOXIDE] ?
874

Now try COc1ccc2c(c1)OCC(Cc1ccc(OC(C)=O)c(OC)c1)C2=O (stereo not drawn) .
3740

Entry CCCCCCCCCCCCCC(=O)O[C@@H]1[C@@H](C)[C@@]2(O)[C@@H](C=C(CO)C[C@]3(O)C(=O)C(C)=C[C@@H]23)[C@@H]2C(C)(C)[C@]12OC(C)=O [PHORBOLMYRISTATEACETATE, reference compound] please
776

Likewise for CCC(C)C(=O)OC1[C@@H]2CC3=C4CC(=O)O[C@@H](c5ccoc5)[C@]4(C)CCC3[C@@](C)(C2=O)[C@@H](CC(=O)OC)C1(C)C (stereo partly drawn) ?
1736

Another: COc1ccc(-c2oc3ccccc3c(=O)c2O)cc1OC [3-HYDROXY-3′,4′-DIMETHOXYFLAVONE]
1504

Consider next the compound "O=c1cc(-c2cc(O)c(O)c(O)c2)oc2cc(O)cc(O)c12" in the same way.
2502

Note, next up: "COc1cc(OC)c2c(=O)c(O)c(-c3ccc(OC)c(OC)c3)oc2c1"
760

What would you report for CC(=O)NC(C(=O)O)C(C)(C)SN=O (stereo not drawn) [reference compound] ?
1044

Moving on to the next compound: CC(=O)[O-].CC(=O)[O-].[Cd+2] [CADMIUMACETATE]
992

For "C[C@]12CCC(=O)C=C1CCc1ccc(O)cc12" then?
592

Now try C=C[C@@](C)(O)CCC1C(=C)CCC2[C@@](C)(CO)CCC[C@]12C (stereo partly drawn) [EPI(13)TORULOSOL] .
724
